Cited source for all entries: ChEMBL document CHEMBL6092207

Target: Replicase polyprotein 1ab (Severe acute respiratory syndrome coronavirus 2)
reported-endpoint: Ki

Consider the following illustrative entries.
substance-smiles: CN1C(=O)C[C@H]2CC3(CC3)CN2C(=O)c2cncc(c2)NCCC/C=C/CNC(=O)[C@H]1Cc1ccc(Cl)cc1Cl
Ki: < 1 nM

substance-smiles: CN1C(=O)C[C@H]2CC3(CC3)CN2C(=O)c2cncc(c2)NCCCCCCNC(=O)[C@H]1Cc1ccc(Cl)cc1Cl
Ki: < 1 nM

// switching to the query molecule
In plain terms, CNC[C@@H](Cc1ccc(Cl)cc1)N(C)C(=O)C[C@H]1CCCN1C(=O)c1cncc2ccccc12 has a documented Ki of 28 nM
